# protocol.notes: Long-term stability in spiked pooled human plasma
# settings: validation standard 2xLLOV
measure.name: Long-term stability, 1 month, -20°C Accuracy [%] (%)

>>> measured_number("NC(=O)c1cccc2cn(-c3ccc([C@@H]4CCCNC4)cc3)nc12")
101.4
>>> measured_number("CS(=O)(=O)CCNCc1ccc(-c2ccc3ncnc(Nc4ccc(OCc5cccc(F)c5)c(Cl)c4)c3c2)o1")
91.4
>>> measured_number("C[C@]12CC[C@H](O)CC1=CC[C@@H]1[C@@H]2CC[C@]2(C)C(c3cccnc3)=CC[C@@H]12")
96.2
>>> measured_number("O=c1[nH]c(=O)n([C@H]2C[C@H](O)[C@@H](CO)O2)cc1C(F)(F)F")
112.0
>>> measured_number("CN(C)C/C=C/C(=O)Nc1cc2c(Nc3ccc(F)c(Cl)c3)ncnc2cc1O[C@H]1CCOC1")
79.7
>>> measured_number("Cc1ccc(NC(=O)c2ccc(CN3CCN(C)CC3)cc2)cc1Nc1nccc(-c2cccnc2)n1")
97.8
>>> measured_number("Cc1c(C(=O)Nc2ccc(N3C[C@@H](C)O[C@@H](C)C3)nc2)cccc1-c1ccc(OC(F)(F)F)cc1")
106.2
>>> measured_number("CNCc1ccc(-c2[nH]c3cc(F)cc4c3c2CCNC4=O)cc1")
95.4
>>> measured_number("Cc1cc(Nc2ncc(Cl)c(Nc3ccccc3S(=O)(=O)C(C)C)n2)c(OC(C)C)cc1C1CCNCC1")
94.3
>>> measured_number("COc1cc2c(Nc3ccc(Br)cc3F)ncnc2cc1OCC1CCN(C)CC1")
99.7
>>> measured_number("C[C@@H](Oc1cc(-c2cnn(C3CCNCC3)c2)cnc1N)c1c(Cl)ccc(F)c1Cl")
87.5
>>> measured_number("Nc1cccc2c1CN(C1CCC(=O)NC1=O)C2=O (stereo not drawn) [Lenalidomide]")
112.2
>>> measured_number("CCC1=C[C@@H]2CN(C1)Cc1c([nH]c3ccccc13)[C@@](C(=O)OC)(c1cc3c(cc1OC)N(C)[C@H]1[C@@](O)(C(=O)OC)[C@H](OC(C)=O)[C@]4(CC)C=CCN5CC[C@]31[C@@H]54)C2")
97.3
>>> measured_number("Cc1cn(-c2cc(NC(=O)c3ccc(C)c(Nc4nccc(-c5cccnc5)n4)c3)cc(C(F)(F)F)c2)cn1")
95.1
>>> measured_number("CO[C@@H]1[C@H](N(C)C(=O)c2ccccc2)C[C@H]2O[C@]1(C)n1c3ccccc3c3c4c(c5c6ccccc6n2c5c31)C(=O)NC4")
105.5

====

The compounds listed here are annotated with their Long-term stability, 3 month, -20°C Accuracy [%].
# protocol.notes: Long-term stability in spiked pooled human plasma
# settings: validation standard LLOV
measure.name: Long-term stability, 3 month, -20°C Accuracy [%] (%)

>>> measured_number("C[C@H]1Oc2cc(cnc2N)-c2c(nn(C)c2C#N)CN(C)C(=O)c2ccc(F)cc21")
95.7
>>> measured_number("Cn1cnc2c(F)c(Nc3ccc(Br)cc3F)c(C(=O)NOCCO)cc21")
105.4
>>> measured_number("O=C(c1ccc(F)c(F)c1Nc1ccc(I)cc1F)N1CC(O)([C@@H]2CCCCN2)C1")
101.3
>>> measured_number("Cc1cn(-c2cc(NC(=O)c3ccc(C)c(Nc4nccc(-c5cccnc5)n4)c3)cc(C(F)(F)F)c2)cn1")
90.5
>>> measured_number("CO[C@@H]1[C@H](N(C)C(=O)c2ccccc2)C[C@H]2O[C@]1(C)n1c3ccccc3c3c4c(c5c6ccccc6n2c5c31)C(=O)NC4")
102.8
>>> measured_number("O=C1CCC(N2C(=O)c3ccccc3C2=O)C(=O)N1 (centres unmarked) [Thalidomide]")
43.9
>>> measured_number("O=c1[nH]c(=O)n([C@H]2C[C@H](O)[C@@H](CO)O2)cc1C(F)(F)F")
89.9
>>> measured_number("COc1cc(N2CCC(N3CCN(C)CC3)CC2)ccc1Nc1ncc(Cl)c(Nc2ccccc2P(C)(C)=O)n1")
92.1

====

# protocol.notes: Long-term stability in spiked pooled human plasma
# settings: validation standard LLOV
measure.name: Long-term stability, 2 month, -80°C Accuracy [%] (%)

>>> measured_number("O=C1CCC(N2C(=O)c3ccccc3C2=O)C(=O)N1 (stereo not shown) [Thalidomide]")
72.7
>>> measured_number("CC1(C)CCC(CN2CCN(c3ccc(C(=O)NS(=O)(=O)c4ccc(NCC5CCOCC5)c([N+](=O)[O-])c4)c(Oc4cnc5[nH]ccc5c4)c3)CC2)=C(c2ccc(Cl)cc2)C1")
115.7
>>> measured_number("Cc1c(C(=O)Nc2ccc(N3C[C@@H](C)O[C@@H](C)C3)nc2)cccc1-c1ccc(OC(F)(F)F)cc1")
104.4
>>> measured_number("CCCS(=O)(=O)Nc1ccc(F)c(C(=O)c2c[nH]c3ncc(-c4ccc(Cl)cc4)cc23)c1F")
98.7
>>> measured_number("O=C(Nc1cnn2ccc(N3CCC[C@@H]3c3cc(F)ccc3F)nc12)N1CC[C@H](O)C1")
102.1
>>> measured_number("CNC(=O)c1ccc(N2C(=S)N(c3ccc(C#N)c(C(F)(F)F)c3)C(=O)C2(C)C)cc1F [Enzalutamide]")
94.8
>>> measured_number("O=C1CN2Cc3c(ccc(Cl)c3Cl)N=C2N1 [Anagrelide]")
141.5

====

# protocol.notes: Freeze-thaw stability in spiked pooled human plasma
# Format: physicochemical
# settings: validation standard MOV
The compounds listed here are annotated with their Freeze-Thaw Accuracy [%].
measure.name: Freeze-Thaw Accuracy [%] (%)

>>> measured_number("CNCc1ccc(-c2[nH]c3cc(F)cc4c3c2CCNC4=O)cc1")
97.8
>>> measured_number("N#CC[C@H](C1CCCC1)n1cc(-c2ncnc3[nH]ccc23)cn1")
96.2
>>> measured_number("CC1(C)CCC(CN2CCN(c3ccc(C(=O)NS(=O)(=O)c4ccc(NCC5CCOCC5)c([N+](=O)[O-])c4)c(Oc4cnc5[nH]ccc5c4)c3)CC2)=C(c2ccc(Cl)cc2)C1")
97.8
>>> measured_number("C#Cc1cccc(Nc2ncnc3cc(OCCOC)c(OCCOC)cc23)c1")
100.4

====

# protocol.notes: Autosampler stability of ready for injection samples
# Assay type: physicochemical, human
# settings: validation standard MOV
The compounds listed here are annotated with their Autosampler (72h, 4°C) Accuracy [%].
measure.name: Autosampler (72h, 4°C) Accuracy [%] (%)

>>> measured_number("COC(=O)c1ccc2c(c1)NC(=O)/C2=C(\\Nc1ccc(N(C)C(=O)CN2CCN(C)CC2)cc1)c1ccccc1")
104.6
>>> measured_number("C[C@@H](Oc1cc(-c2cnn(C3CCNCC3)c2)cnc1N)c1c(Cl)ccc(F)c1Cl")
103.8
>>> measured_number("CCN(CC)CCNC(=O)c1c(C)[nH]c(/C=C2\\C(=O)Nc3ccc(F)cc32)c1C")
114.3
>>> measured_number("CC(C)(C)c1nc(-c2cccc(NS(=O)(=O)c3c(F)cccc3F)c2F)c(-c2ccnc(N)n2)s1")
99.8
>>> measured_number("Cc1ccc(C(=O)Nc2ccc(CN3CCN(C)CC3)c(C(F)(F)F)c2)cc1C#Cc1cnc2cccnn12")
102.3
>>> measured_number("COc1cc2nccc(Oc3ccc(NC(=O)Nc4cc(C)on4)c(Cl)c3)c2cc1OC")
102.4
>>> measured_number("CO[C@@H]1[C@H](N(C)C(=O)c2ccccc2)C[C@H]2O[C@]1(C)n1c3ccccc3c3c4c(c5c6ccccc6n2c5c31)C(=O)NC4")
103.7
>>> measured_number("Cc1[nH]c2ccccc2c1CCNCc1ccc(/C=C/C(=O)NO)cc1")
101.0

====

# protocol.notes: Short-term stability in spiked pooled human plasma (bench-top, 4 °C, 56 °C)
# settings: validation standard ULOV
measure.name: Short-time stability (1h, 56°C) Accuracy [%] (%)

>>> measured_number("CS(=O)(=O)c1ccc(C(=O)Nc2ccc(Cl)c(-c3ccccn3)c2)c(Cl)c1")
54.4
>>> measured_number("COc1cc2ncnc(Nc3ccc(F)c(Cl)c3)c2cc1OCCCN1CCOCC1")
42.1
>>> measured_number("CO[C@@H]1[C@H](N(C)C(=O)c2ccccc2)C[C@H]2O[C@]1(C)n1c3ccccc3c3c4c(c5c6ccccc6n2c5c31)C(=O)NC4")
37.7
>>> measured_number("CC1(C)CCC(CN2CCN(c3ccc(C(=O)NS(=O)(=O)c4ccc(NCC5CCOCC5)c([N+](=O)[O-])c4)c(Oc4cnc5[nH]ccc5c4)c3)CC2)=C(c2ccc(Cl)cc2)C1")
22.4
>>> measured_number("CC(C)(C)c1nc(-c2cccc(NS(=O)(=O)c3c(F)cccc3F)c2F)c(-c2ccnc(N)n2)s1")
35.6
>>> measured_number("CCC1=C[C@@H]2CN(C1)Cc1c([nH]c3ccccc13)[C@@](C(=O)OC)(c1cc3c(cc1OC)N(C)[C@H]1[C@@](O)(C(=O)OC)[C@H](OC(C)=O)[C@]4(CC)C=CCN5CC[C@]31[C@@H]54)C2")
29.6
>>> measured_number("COC(=O)c1ccc2c(c1)NC(=O)/C2=C(\\Nc1ccc(N(C)C(=O)CN2CCN(C)CC2)cc1)c1ccccc1")
43.9
>>> measured_number("COC(=O)N[C@@H](C)CNc1nccc(-c2cn(C(C)C)nc2-c2cc(Cl)cc(NS(C)(=O)=O)c2F)n1")
44.5
>>> measured_number("CNC(=O)c1ccc(N2C(=S)N(c3cnc(C#N)c(C(F)(F)F)c3)C(=O)C23CCC3)cc1F [Apalutamide]")
29.0
>>> measured_number("Nc1cccc2c1C(=O)N(C1CCC(=O)NC1=O)C2=O (centres unmarked) [Pomalidomide]")
16.9
>>> measured_number("Cc1cn(-c2cc(NC(=O)c3ccc(C)c(Nc4nccc(-c5cccnc5)n4)c3)cc(C(F)(F)F)c2)cn1")
44.6
>>> measured_number("CCN(CC)CCNC(=O)c1c(C)[nH]c(/C=C2\\C(=O)Nc3ccc(F)cc32)c1C")
40.6
>>> measured_number("CNCc1ccc(-c2[nH]c3cc(F)cc4c3c2CCNC4=O)cc1")
46.1
>>> measured_number("CS(=O)(=O)CCNCc1ccc(-c2ccc3ncnc(Nc4ccc(OCc5cccc(F)c5)c(Cl)c4)c3c2)o1")
42.5
